# System Name: Human CD4 on CD4+CD25+ regulatory T cells of healthy donors (human, UniProt P01730 26-458)
# Procedure Text: cell-based or functional assay
Decision: % Inh3 compared against 20%; not below it gives satisfied, below it gives not satisfied.

binder="LC L98I HC R33K (antibody, V domains shown) VH: EEQLVESGGGLVKPGGSLRLSCAASGFSFSDCKMYWLRQAPGKGLEWIGVISVKSENYGANYAESVRGRFTISRDDSKNTVYLQMNSLKTEDTAVYYCSASYYRYDVGAWFAYWGQGTLVTVSS VL: DIVMTQSPDSLAVSLGERATINCRASKSVSTSGYSYIYWYQQKPGQPPKLLIYLASILESGVPDRFSGSGSGTDFTLTISSLQAEDVAVYYCQHSREIPWTFGQGTKVEIKR" category=satisfied
binder="LC A55G HC R33K (antibody, V domains shown) VH: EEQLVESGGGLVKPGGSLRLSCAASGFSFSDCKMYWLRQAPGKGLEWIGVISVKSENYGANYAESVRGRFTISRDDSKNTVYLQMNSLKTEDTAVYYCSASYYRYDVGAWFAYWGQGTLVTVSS VL: DIVMTQSPDSLAVSLGERATINCRASKSVSTSGYSYIYWYQQKPGQPPKLLIYLGSILESGVPDRFSGSGSGTDFTLTISSLQAEDVAVYYCQHSRELPWTFGQGTKVEIKR" category="not satisfied"
binder="LC master HC R33K-A63G (antibody, V domains shown) VH: EEQLVESGGGLVKPGGSLRLSCAASGFSFSDCKMYWLRQAPGKGLEWIGVISVKSENYGANYGESVRGRFTISRDDSKNTVYLQMNSLKTEDTAVYYCSASYYRYDVGAWFAYWGQGTLVTVSS VL: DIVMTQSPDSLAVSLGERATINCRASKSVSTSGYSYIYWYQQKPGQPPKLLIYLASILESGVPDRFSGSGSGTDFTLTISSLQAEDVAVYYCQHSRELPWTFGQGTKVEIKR" category=satisfied
binder="BT61 Lot 52690 (antibody, human IgG1, kappa, V domains shown) VH: EEQLVESGGGLVKPGGSLRLSCAASGFSFSDCRMYWLRQAPGKGLEWIGVISVKSENYGANYAESVRGRFTISRDDSKNTVYLQMNSLKTEDTAVYYCSASYYRYDVGAWFAYWGQGTLVTVSS VL: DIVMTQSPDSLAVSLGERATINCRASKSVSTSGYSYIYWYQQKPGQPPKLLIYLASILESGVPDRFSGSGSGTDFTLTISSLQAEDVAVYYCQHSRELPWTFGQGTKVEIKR" category=satisfied
binder="LC master HC Y105W (antibody, V domains shown) VH: EEQLVESGGGLVKPGGSLRLSCAASGFSFSDCRMYWLRQAPGKGLEWIGVISVKSENYGANYAESVRGRFTISRDDSKNTVYLQMNSLKTEDTAVYYCSASYYRWDVGAWFAYWGQGTLVTVSS VL: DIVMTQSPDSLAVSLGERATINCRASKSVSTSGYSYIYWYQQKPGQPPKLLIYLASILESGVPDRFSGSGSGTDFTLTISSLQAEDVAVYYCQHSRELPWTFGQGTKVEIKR" category="not satisfied"
